Test system: HeLa
METHOD NOTES: Cytotoxicity against human HeLa cells assessed as reduction in cell viability after 72 hrs by CCK8 assay
Assay type: functional, cell-based
CONDITION SET: Homo sapiens, HeLa, 72 h
REPORTED ENDPOINT: pIC50
Entry type: numeric. Quantity: pIC50, the -log10 of concentration in molar units.

Form field: reported pIC50 of COc1cc(C)c(-c2ccc3c(c2O)[C@@H](C)N[C@H](C)C3)c2ccc(-c3c(C)c(-c4ccc5c(c4O)[C@@H](C)N[C@H](C)C5)c4cccc(OC)c4c3O)c(O)c12 (atropisomer, axis not shown) 5.97

All figures here come from ChEMBL document CHEMBL4130513.
